Provenance of the data: ChEMBL document CHEMBL1921678

experiment notes: Volume of distribution at steady state in mouse at 2 mg/kg, iv
Assay type: ADME, organism-based
Set-up: dose 2 mg/kg, route intravenous
condition parameters: in vivo, read-out: Vdss

>  <molecule>
NC(=O)C(NC1CCC(c2c[nH]c3ccccc23)CC1)C1CCN(C(=O)/C=C/c2cc(F)cc(F)c2)CC1 (racemic)

>  <Vd>
3.71 L/kg

$$$$

----------
assay target: C-C chemokine receptor type 2 (Homo sapiens)
Sequence (P41597 whole entry): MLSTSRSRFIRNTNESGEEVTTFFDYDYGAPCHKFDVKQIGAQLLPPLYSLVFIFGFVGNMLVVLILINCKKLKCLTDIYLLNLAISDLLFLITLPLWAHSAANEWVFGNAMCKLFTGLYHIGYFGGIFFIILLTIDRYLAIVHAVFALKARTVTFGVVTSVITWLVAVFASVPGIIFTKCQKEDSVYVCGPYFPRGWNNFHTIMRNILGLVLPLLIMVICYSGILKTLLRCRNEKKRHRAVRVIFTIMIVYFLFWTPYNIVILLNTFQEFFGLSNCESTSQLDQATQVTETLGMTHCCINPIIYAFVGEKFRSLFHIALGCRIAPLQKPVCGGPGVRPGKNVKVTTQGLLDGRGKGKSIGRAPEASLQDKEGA
experiment notes: Antagonist activity at human CCR2
pIC50: −log10 of the molar value.
Catalogue of molecules with associated pIC50
observed property: pIC50

>  <molecule>
CN(C1CCC(c2c[nH]c3ccccc23)CC1)C(C(=O)O)C1CCN(C(=O)/C=C/c2cc(F)c(F)c(F)c2)CC1 (stereo not drawn)

>  <result comparator>
=

>  <endpoint result>
5.09

$$$$
>  <molecule>
CC(C)C1CCC(NC(C(N)=O)C2CCN(C(=O)/C=C/c3cc(F)c(F)c(F)c3)CC2)CC1 (stereo not drawn)

>  <result comparator>
=

>  <endpoint result>
4.80

$$$$
>  <molecule>
NC(=O)C(NC1CCC(c2c[nH]c3ccccc23)CC1)C1CCN(C(=O)Cc2ccccc2)CC1 (stereo not drawn)

>  <result comparator>
<

>  <endpoint result>
4.60

$$$$
>  <molecule>
NC(=O)C(NC1CCC(c2c[nH]c3ccncc23)CC1)C1CCN(C(=O)/C=C/c2cc(F)c(F)c(F)c2)CC1 (stereo not drawn)

>  <result comparator>
=

>  <endpoint result>
7.08

$$$$
>  <molecule>
NC(=O)C(NC1CCC(c2c[nH]c3ccccc23)CC1)C1CCN(C(=O)C2CC2c2ccccc2)CC1 (mixture of isomers)

>  <result comparator>
=

>  <endpoint result>
5.89

$$$$
>  <molecule>
NC(=O)C(NC1CCC(c2c[nH]c3cccnc23)CC1)C1CCN(C(=O)/C=C/c2cc(F)c(F)c(F)c2)CC1 (stereo not drawn)

>  <result comparator>
=

>  <endpoint result>
7.46

$$$$
>  <molecule>
CC(NC1CCC(c2c[nH]c3ccccc23)CC1)C1CCN(C(=O)/C=C/c2cc(F)c(F)c(F)c2)CC1 (stereo not drawn)

>  <result comparator>
=

>  <endpoint result>
5.07

$$$$
>  <molecule>
O=C1NC2(CCC(c3c[nH]c4ccccc34)CC2)NC1C1CCN(C(=O)/C=C/c2cc(F)c(F)c(F)c2)CC1 (stereo not drawn)

>  <result comparator>
=

>  <endpoint result>
5.28

$$$$
